Source of measurements: PubChem BioAssay (NCI)

Test system: SNB-19 CNS
assay.text: NCI tumour cell line growth inhibition, 48 h; in the data active = GI50 below about 0.43 µM; inactive = the rest
Would you mind answering with one of these outcomes? active, inactive

Examples from the recorded data:
{"compound": "COc1cc(N)c(Cl)cc1C(=O)N[C@@H]1CCN(CCCOc2ccc(F)cc2)C[C@@H]1OC", "assigned.label": "inactive"}
{"compound": "CCCC(=O)Nc1cc(/C=C/C(=O)N2C[C@@H]3C[C@]34C2=CC(=O)c2[nH]cc(C)c24)n(C)c1", "assigned.label": "active"}

Here's the next entry for you.
Problem: What was the test verdict on CCCCS(=O)(=O)c1cc(Nc2ccc(O)c3c2C(=O)c2ccccc2C3=O)ccc1C ?
Result: inactive

* * *

Tested on: SNB-78 CNS
assay.text: NCI tumour cell line growth inhibition, 48 h
quantity: TGI

{"compound": "Cc1nc(Nc2ccc(Cl)cc2)sc1C(=O)Nc1cccc2c(=O)[nH][nH]c(=O)c12", "TGI": "> 100 µM"}

Give TGI for all compounds that follow.
1. CCSc1c2ccccc2nc2c(OC)ccc(OC)c12
2. Cc1ccc(N2Cc3c(ccc4ccccc34)OP2(=S)N2CCCC2)cc1 (stereo unspecified)
3. Cc1c2cc[n+](C)cc2c(C)c2c1[nH]c1ccc(OCC(F)(F)F)cc12
4. CC(NC1CCCC[C@@H]1O)c1ccccc1 (stereo partly specified)
5. O=c1cc(-c2ccccc2)oc2cc(OCCCCCCCCCCOc3ccc4c(=O)cc(-c5ccccc5)oc4c3)ccc12

Result:
56.7 µM
> 100 µM
> 100 µM
> 100 µM
> 100 µM

* * *

Could you please report measured TGI for the items listed next?
Test system: M14 melanoma
assay.text: NCI tumour cell line growth inhibition, 48 h

A selection of reference data follows.
{"compound": "CC(C)C(Br)C(=O)NCC(=O)O (stereo unspecified)", "quantity": "TGI", "result": "> 100 µM"}
{"compound": "O=C(Oc1cncc(Cl)c1)c1cc2ccccc2sc1=O", "quantity": "TGI", "result": "> 100 µM"}
{"compound": "Cc1cc2ccccc2oc(=O)/c1=N\\Nc1ccccc1", "quantity": "TGI", "result": "> 100 µM"}

Give TGI for all compounds that follow.
1. COc1cc(N)c(Cl)cc1C(=O)N[C@@H]1CCN(CCCOc2ccc(F)cc2)C[C@@H]1OC
2. O=C(CCC(NC(=O)OCc1ccccc1)C(=O)OCc1ccccc1)Nc1cccc(OCc2ccccc2)c1 (stereo unspecified)
3. C/C(=N/NC(N)=S)C(CN1CCOCC1)C(C1=C(O)c2ccccc2OC1)c1ccccc1 (stereo unspecified)
4. CCOC(=O)C1=C(N2CCCC2)C(=O)C(C(=O)OCC)C1 (stereo unspecified)
5. Cn1cnnc1Sc1c([N+](=O)[O-])nc(-c2ccc([N+](=O)[O-])cc2)n1C

Result:
88.8 µM
38.2 µM
> 100 µM
> 100 µM
30.6 µM

* * *

Test system: SK-MEL-5 melanoma
assay.text: NCI tumour cell line growth inhibition, 48 h
quantity: TGI

Give TGI for all compounds that follow.
1. CC(C)(C)c1cc(C(C)(C)C)c(SC2OC(CO)C(O)C(O)C2O)c(O)c1O (stereo unspecified)
2. c1ccc(C2N=C(c3ccccn3)C(c3ccccn3)=NC2c2ccccc2)cc1 (stereo unspecified)
3. C(=Nc1ccc(-c2nc3ccccc3s2)cc1)c1cccs1

Result:
["18.6 µM", "> 100 µM", "> 100 µM"]

Give TGI for all compounds that follow.
1. CC(=O)OC1C2CCC3CC2C2(SCCS2)C31 (stereo unspecified)
2. COC(=O)CCC(NC(=S)N/N=C(\C)c1cccs1)C(=O)OC (stereo unspecified)
3. Cc1c2oc(=O)c(C#N)cc2c2ccccn12

Result:
1. > 100 µM
2. > 100 µM
3. > 100 µM
